target desc: human EGFR L858R (NIH/3T3 cells) (Homo sapiens, UniProt P00533, L858R)
Sequence (P00533 25-1210 L858R): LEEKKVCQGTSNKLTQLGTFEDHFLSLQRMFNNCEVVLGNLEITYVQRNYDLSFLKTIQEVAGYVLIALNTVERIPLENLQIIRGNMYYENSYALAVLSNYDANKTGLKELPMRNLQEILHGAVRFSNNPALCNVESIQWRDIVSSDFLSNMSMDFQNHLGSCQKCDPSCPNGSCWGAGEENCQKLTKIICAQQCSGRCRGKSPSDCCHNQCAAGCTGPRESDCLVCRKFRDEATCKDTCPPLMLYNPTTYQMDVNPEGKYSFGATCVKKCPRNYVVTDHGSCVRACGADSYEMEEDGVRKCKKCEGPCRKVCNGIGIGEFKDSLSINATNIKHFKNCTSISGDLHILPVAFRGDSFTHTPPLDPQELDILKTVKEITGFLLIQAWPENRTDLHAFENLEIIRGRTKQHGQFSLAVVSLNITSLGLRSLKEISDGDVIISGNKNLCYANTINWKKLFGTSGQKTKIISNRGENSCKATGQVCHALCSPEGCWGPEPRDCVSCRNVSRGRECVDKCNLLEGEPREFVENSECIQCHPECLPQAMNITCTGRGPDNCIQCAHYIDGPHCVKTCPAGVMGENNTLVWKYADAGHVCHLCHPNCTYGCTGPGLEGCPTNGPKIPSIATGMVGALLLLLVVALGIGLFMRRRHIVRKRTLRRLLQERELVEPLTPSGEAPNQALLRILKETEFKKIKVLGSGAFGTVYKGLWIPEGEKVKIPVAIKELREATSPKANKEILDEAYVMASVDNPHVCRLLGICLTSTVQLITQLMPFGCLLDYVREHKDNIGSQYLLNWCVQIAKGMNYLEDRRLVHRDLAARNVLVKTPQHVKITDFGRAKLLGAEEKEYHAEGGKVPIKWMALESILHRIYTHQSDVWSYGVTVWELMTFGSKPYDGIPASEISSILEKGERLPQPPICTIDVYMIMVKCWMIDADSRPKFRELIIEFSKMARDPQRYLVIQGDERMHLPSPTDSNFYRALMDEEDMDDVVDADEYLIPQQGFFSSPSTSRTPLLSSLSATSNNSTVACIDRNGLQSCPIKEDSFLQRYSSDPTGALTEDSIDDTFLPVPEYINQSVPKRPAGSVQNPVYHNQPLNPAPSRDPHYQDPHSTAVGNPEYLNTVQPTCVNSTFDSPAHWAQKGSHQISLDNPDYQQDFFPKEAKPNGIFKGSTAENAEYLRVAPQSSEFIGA
measurement description: EGFR target modulation in engineered NIH/3T3 cell lines (phospho-EGFR Y1068 AlphaLISA), EGFR L858R
Type: cell-based
settings: engineered NIH/3T3 cells, read-out: NIH3T3 IC50 (μM) EGFR (L858R)
property label: IC50 (µM)

compound=Cc1cccc2nc(NC(=O)c3ccnc(-c4ccccc4)c3)n([C@@H]3CCCCN(C(=O)/C=C/CN(C)C)C3)c12 property_label=IC50 comparison_symbol=< value=0.001
compound=Cc1cc(C(=O)Nc2nc3cccc(Cl)c3n2[C@@H]2CCCCN(C(=O)/C=C/CN3CC(F)C3)C2)ccn1 property_label=IC50 comparison_symbol== value=0.008
compound="C=CC(=O)N1CCCCC(n2c(NC(=O)c3cccc(C(F)(F)F)c3)nc3cccc(CN4CCCC4)c32)C1 (stereo not drawn)" property_label=IC50 comparison_symbol== value=0.002
compound="C=CC(=O)N1CCCC(n2c(NC(=O)c3cccc(C(F)(F)F)c3)nc3c2CCN(S(C)(=O)=O)C3)C1 (stereo not drawn)" property_label=IC50 comparison_symbol== value=0.6
compound=Cc1cc(C(=O)Nc2nc3cccc(C)c3n2[C@@H]2CCCCN(C(=O)/C=C/CN(C)C)C2)ccn1 property_label=IC50 comparison_symbol== value=0.001
compound=C=CC(=O)N1CCCC[C@@H](n2c(NC(=O)c3cccc(C(F)(F)F)c3)nc3cccc(Cl)c32)C1 property_label=IC50 comparison_symbol== value=0.02
compound="C=CC(=O)N1CCCCC(n2c(NC(=O)c3ccccc3)nc3cccc(C(=O)NCCC(=O)OC)c32)C1 (stereo not drawn)" property_label=IC50 comparison_symbol== value=0.63
compound="C=CC(=O)N1CCCC(n2c(NC(=O)c3cccc(C(F)(F)F)c3)nc3c2CN(S(C)(=O)=O)CC3)C1 (stereo not drawn)" property_label=IC50 comparison_symbol== value=1.86
compound="C/C=C/C(=O)N1CCCCC(n2c(NC(=O)c3cccc(C(F)(F)F)c3)nc3cccc(C)c32)C1 (stereo not drawn)" property_label=IC50 comparison_symbol== value=0.75
compound="C=CC(=O)N1CCOCC(n2c(NC(=O)c3ccccc3)nc3cccc(-c4nc(C)no4)c32)C1 (stereo not drawn)" property_label=IC50 comparison_symbol== value=0.68
compound=C=C(CN1CCOCC1)C(=O)N1CCCC[C@@H](n2c(NC(=O)c3ccnnc3)nc3cccc(C)c32)C1 property_label=IC50 comparison_symbol== value=0.281
compound=COC1CN(C/C=C/C(=O)N2CCCC[C@@H](n3c(NC(=O)c4ccnc(C)c4)nc4cccc(Cl)c43)C2)C1 property_label=IC50 comparison_symbol== value=0.011
compound="Cc1cccc2nc(NC(=O)c3cc(F)cc(F)c3)n(C3CCCCN(C(=O)/C=C/CN(C)C)C3)c12 (stereo not drawn)" property_label=IC50 comparison_symbol== value=0.004
compound=Cc1cccc2nc(NC(=O)c3ccnc(OC(F)F)c3)n([C@@H]3CCCCN(C(=O)/C=C/CN(C)C)C3)c12 property_label=IC50 comparison_symbol=< value=0.001
compound="Cc1cccc2nc(NC(=O)c3cccc(Cl)c3F)n(C3CCCCN(C(=O)/C=C/CN(C)C)C3)c12 (stereo not drawn)" property_label=IC50 comparison_symbol== value=0.019
compound=CN(C)C/C=C/C(=O)N1CCC[C@@H](n2c(NC(=O)c3cccc(C(F)(F)F)c3)nc3cc(CO)ccc32)C1 property_label=IC50 comparison_symbol== value=0.313
compound="Cc1ncc(C(=O)Nc2nc3cccc(C)c3n2C2CCCCN(C(=O)/C=C/CN(C)C)C2)s1 (single isomer, unassigned) [Example 21-8A]" property_label=IC50 comparison_symbol== value=0.211
compound=C=CC(=O)N1CCCC[C@@H](n2c(NC(=O)c3ccccc3)nc3cc(CN4CCCC4)cc(C)c32)C1 property_label=IC50 comparison_symbol== value=0.003

Source listed as patent US9440957B2.
